Reference for the values: patent US20210040185A1

- target: HIV-1 envelope (Env) of virus AC10.0.29 (HIV-1)
- protocolDescription: cell-based or functional assay
# reported IC50 of viral neutralization (Env.IMC.LucR virus, TZM-BL reporter cells); entries follow
Please respond with the number in µg/mL and leave the unit unwritten.

Answered cases to consult:
L2A1_H58NS (antibody, V domains shown) VH: HVQLVQSGGGVKKIGAAVRISCEVTGYKFMDQLINWVRQAPGQGLEWMGWMNPTYGQVSYSWRFEGRVTMTRDMDTETAFMELRGLRVDDTAVYYCARGPSGENYPFHYWGQGVRVVVSS VL: ASALTQPASMSASPGQSVTISCSGTRHIISAWFQQYPGKPPKLIIFDDDKRPSGVPSRFSASRPGDTASLTISNVQPEDEATYICNTYEFFGGGTRLTVL    0.091
NVS49-L2A1 (antibody, V domains shown) VH: HVQLVQSGGGVKKIGAAVRISCEVTGYKFMDQLINWVRQAPGQGLEWMGWMNPTYGQVNYSWRFEGRVTMTRDMDTETAFMELRGLRVDDTAVYYCARGPSGENYPFHYWGQGVRVVVSS VL: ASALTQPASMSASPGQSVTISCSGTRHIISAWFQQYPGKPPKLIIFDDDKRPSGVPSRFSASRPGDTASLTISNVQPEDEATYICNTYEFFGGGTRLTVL    0.306

Please find the next binder below.
Briefly, IC50 of viral neutralization (Env.IMC.LucR virus, TZM-BL reporter cells) measured for L2A1_H58NA (antibody, V domains shown) VH: HVQLVQSGGGVKKIGAAVRISCEVTGYKFMDQLINWVRQAPGQGLEWMGWMNPTYGQVAYSWRFEGRVTMTRDMDTETAFMELRGLRVDDTAVYYCARGPSGENYPFHYWGQGVRVVVSS VL: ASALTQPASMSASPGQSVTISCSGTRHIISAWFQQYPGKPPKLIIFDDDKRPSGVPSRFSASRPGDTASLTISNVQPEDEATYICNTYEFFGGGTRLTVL : 0.098
